ASSAY: ATG_CMV_CIS: Attagene CIS-FACTORIAL HepG2 Assay for human CMV (Internal Marker) (AID 2282928);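 further: endpoint acts as a background internal control marker rather than a target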
CONDITION_SUMMARY: HepG2 CMV promoter reporter, transcription factor profiling; actives raise or lower the signal
Calls of active or inactive are those of the source. How the source made its calls: active means hit-call score of the fitted dose curve at least 0.9, where 1 is the maximum; inactive means score below 0.9.
READOUT_NAME: AC50

As a guide, the following entries are already answered.
• COC(C=C(C)CCC=C(C)C)OC = inactive
• C=C[Si](OCCOC)(OCCOC)OCCOC = inactive
• CC(C)(O)Cc1ccccc1 = inactive
• CCC[Si](OC)(OC)OC = inactive

Indicate the recorded AC50 value for this compound: CCCCCCOc1ccc(N)cc1
155 µM (active)

Indicate the recorded AC50 value for this compound: C=CC(=O)OCCCCCCOC(=O)C=C
56.6 µM (active)
